Source listed as paper PMC10397247.

tgt: T1, 4H3865-AA
T1 chain: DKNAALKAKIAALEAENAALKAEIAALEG
test.summary: two-hybrid library CCmax;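 further: natural log of median RNA to DNA barcode read ratio; higher means stronger binding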
condition.summary: mean of both orientations
readout: interaction score

# annotated cases, reported interaction score shown
DKNAALEAKIAALKAEIAALEAENAALEG [4H3395-AA] :: -1.79
DENAALEAKIAALKAEIAALEAKNAALEG [4H1351-AA] :: -1.73

1 = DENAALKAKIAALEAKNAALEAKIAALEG [4H1845-AA]
2 = DKIAALEAKNAALEAKIAALKAEIAALEG [4H2473-AA]
# min-compare on interaction score between 1 and 2 // return label of chosen record
1
